growth values, listed per item
Tested on: CAKI-1 renal
Assay: NCI-60 one-dose screen, 48 h (100 = growth as untreated, 0 = no growth, -100 = all killed)
Conditions: 10 µM unless noted
Compounds without any hit were thinned out: in the full panel of roughly 83,000, 20% have a hit.
Your answer is read as %, so omit the unit and give the number.

[[record]]
compound = "O=C1/C(=C/c2ccc(Cl)cc2)CCC/C1=C\\c1ccc(Cl)cc1"
value_observed = 89.4

[[record]]
compound = "COc1cc(N)c2nccc(C)c2c1OC"
value_observed = 98.4

[[record]]
compound = "CCC(C)(CC)c1ccc(O)c(C)c1"
value_observed = 109

[[record]]
compound = "COC(=O)c1ccc2[nH]c(O)c(C(=Nc3ccc(N(C)C(=O)CN4CCN(C)CC4)cc3)c3ccc([N+](=O)[O-])cc3)c2c1"
value_observed = 19

[[record]]
compound = "O=C1C=C(OCC=C(C(F)(F)F)C(F)(F)F)c2ccccc2C1=O"
value_observed = 4.75

[[record]]
compound = "Clc1ccc(N/N=C(/c2ccccc2)c2ccccn2)nc1"
value_observed = 36.2

[[record]]
compound = "CCC(C)C1NC(=O)C(CCCCN)NC(=O)C(CCCCN)NC(=O)C(CC(C)C)NC(=O)C(CCCCN)NC(=O)C(C(C)CC)NC(=O)C(C(C)C)NC(=O)C(C(C)CC)NC(=O)C(CCCCN)NC(=O)C(CCCCN)NC(=O)C(C)NC(=O)C(CCCCN)NC(=O)C(CC(C)C)NC1=O (configuration not stated)"
value_observed = 6.74

[[record]]
compound = "CCOC(=O)NC1=NCC(C)(C)S1"
value_observed = 99.7

[[record]]
compound = "CCCCCCCCC(=O)Nc1ccc(O)cc1"
value_observed = 93.9

[[record]]
compound = "Oc1ccccc1/C=N/N=C\\c1ccccc1Cl"
value_observed = 86.8


So the reported growth for O=C(NCCO)C(F)(F)F , on CAKI-1 renal, turned out to be 95.9

The compound COC1(OC)N=C(N)C2(C#N)C3(C(=O)Nc4ccccc43)C12C#N (configuration not stated) , tested on CAKI-1 renal, showed growth of 21.3

Item: CCCCN(CCCC)CC(O)CN(CC)CC (configuration not stated) | System: CAKI-1 renal | growth: 93.8

Tested on CAKI-1 renal: COc1ccc(C(O)(c2ccccc2)C(C(=O)O)c2ccccc2)cc1 (configuration not stated) . Observed growth: 102

Lab entry: CAKI-1 renal assay, compound Cc1nc2c(nnn2-c2ccccc2)c2nc(-c3ccccc3)oc(=O)c12 , growth = 93.8

Form field, growth with CAKI-1 renal, item CCCCCSc1ccc2nc(NC(=O)OCCC)sc2c1 : 32.4

Recorded growth for O=C(Nc1ccc(-n2cc(-c3ccncc3)c(-c3ccc(Cl)c(O)c3)n2)cc1)Nc1ccc(Cl)c(C(F)(F)F)c1 on CAKI-1 renal was -32.5

Observed growth, CAKI-1 renal, CCS(=O)(=O)OCCO[C@H]1Cc2cc3ccc(=O)oc3cc2OC1(C)C : 95
